# assay.overview: in vivo
# condition.context: Sprague-Dawley, rat, CSF, po, 10 mg/kg

- input.smiles: "CC1(C)C=C(c2cnc3c(c2)[C@]2(COC(N)=N2)c2cc(-c4cccnc4F)ccc2O3)CCO1"
  concentration at 4 h (nM): 5
